Exercise: state measured Max. Effect (%) for each of the compounds provided.
- Study target: 17β-HSD10 (Homo sapiens)
- Construct: Histev (histidine tag with TEV site) (N, cleaved yes); made in house; host or cells: E. coli BL21-CodonPlus
- Sequence (Q99714 whole entry): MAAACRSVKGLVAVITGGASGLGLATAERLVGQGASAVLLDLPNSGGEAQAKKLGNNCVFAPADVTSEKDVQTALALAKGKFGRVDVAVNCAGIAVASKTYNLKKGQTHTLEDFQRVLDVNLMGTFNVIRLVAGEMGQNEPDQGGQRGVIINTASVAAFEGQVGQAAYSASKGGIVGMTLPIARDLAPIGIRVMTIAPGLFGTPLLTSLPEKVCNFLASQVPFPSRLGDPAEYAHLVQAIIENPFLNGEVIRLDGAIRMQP
- Protocol description: 17β-HSD10 (ABAD) enzyme inhibition assay, NADH oxidation read at 340 nm (primary screen and dose response)
- Type: biochemical
- Run parameters: recombinant 17βHSD10 enzyme assay
Don't forget the unit after the value.

Recorded Max. Effect (%), per entry:
{"columns": ["Compound", "Max. Effect (%)"],
 "data": [
  ["COc1cccc(-c2ccccc2[C@H]2CCCN2C(=O)c2ccc(C)s2)c1", "22%"],
  ["CC(C)CN(C(=O)Cc1ccccc1)c1cccc(N(C)Cc2cnc[nH]2)c1", "62%"],
  ["CC(C)CN(C(=O)c1ccccc1F)c1cccc(NCc2c[nH]cn2)c1", "64%"]
]}

Record Max. Effect (%) for all entries; do not skip any.
1. O=C(c1cocn1)N1CCC[C@H]1c1ccccc1
2. COc1cccc(-c2ccccc2[C@@H]2CCCN2C(=O)c2snc(Cl)c2Cl)c1 (racemic)

1. 20.5%
2. 5%

// provenance: patent US20260132123A1
